molecular target: Cytochrome P450 11B2, mitochondrial (Homo sapiens, UniProt P19099); experiment: Inhibition of human aldosterone synthase expressed in chinese hamster V79 cells using 11-deoxycorticosterone as substrate; type: cell-based
Sequence (P19099 whole entry): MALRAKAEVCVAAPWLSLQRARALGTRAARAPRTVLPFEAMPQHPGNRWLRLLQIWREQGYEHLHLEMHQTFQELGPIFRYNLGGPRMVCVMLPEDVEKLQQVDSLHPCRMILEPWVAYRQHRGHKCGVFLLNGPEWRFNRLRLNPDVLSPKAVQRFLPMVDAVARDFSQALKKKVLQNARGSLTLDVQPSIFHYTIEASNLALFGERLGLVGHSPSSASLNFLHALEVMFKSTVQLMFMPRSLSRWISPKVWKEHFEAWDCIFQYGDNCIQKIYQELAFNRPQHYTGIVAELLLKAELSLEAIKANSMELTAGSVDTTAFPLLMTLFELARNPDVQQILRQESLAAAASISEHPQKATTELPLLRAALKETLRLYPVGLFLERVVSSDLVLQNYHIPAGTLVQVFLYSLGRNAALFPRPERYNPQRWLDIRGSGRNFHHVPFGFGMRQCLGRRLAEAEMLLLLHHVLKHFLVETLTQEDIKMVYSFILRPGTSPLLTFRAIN
hey, just use Criterion met if measured IC50 is less than 80 nM, otherwise Criterion not met

Q: # TODO verify IC50 < 80 nM strictly for this compound: O=C(Nc1cccnc1)c1cc(F)c(F)cc1F
Ans: Criterion not met

Q: # TODO verify IC50 < 80 nM strictly for this compound: O=C(Nc1cccnc1)c1ccc([N+](=O)[O-])cc1
Ans: Criterion not met

Q: # TODO verify IC50 < 80 nM strictly for this compound: O=C(Nc1cccnc1)c1ccc(F)c(F)c1
Ans: Criterion met

Q: # TODO verify IC50 < 80 nM strictly for this compound: O=C(Nc1cccnc1)c1ccc(Br)cc1
Ans: Criterion not met

Q: # TODO verify IC50 < 80 nM strictly for this compound: O=C(Nc1cccnc1)c1ccc(Cl)cc1
Ans: Criterion met

This collection of values is drawn from ChEMBL document CHEMBL1641566.
